- Target Or Test System: human V1a receptor (Homo sapiens, UniProt P37288)
- Construct: expressed in transfected cells; host or cells: CHO K1 (ATCC), also stably transfected with a modified aequorin
- Sequence (P37288 whole entry): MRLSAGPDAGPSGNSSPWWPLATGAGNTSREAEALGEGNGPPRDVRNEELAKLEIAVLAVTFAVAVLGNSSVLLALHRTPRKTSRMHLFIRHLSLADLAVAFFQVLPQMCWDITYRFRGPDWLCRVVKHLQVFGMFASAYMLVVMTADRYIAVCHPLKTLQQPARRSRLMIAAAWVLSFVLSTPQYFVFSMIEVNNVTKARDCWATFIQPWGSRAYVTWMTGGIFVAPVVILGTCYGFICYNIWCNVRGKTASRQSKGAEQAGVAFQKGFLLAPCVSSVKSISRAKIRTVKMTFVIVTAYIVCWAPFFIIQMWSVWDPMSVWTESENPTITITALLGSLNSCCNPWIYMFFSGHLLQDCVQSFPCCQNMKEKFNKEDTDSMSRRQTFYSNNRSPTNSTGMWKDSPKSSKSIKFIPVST
- Measurement Protocol: Cellular in vitro assay for determining vasopressin receptor activity, V1a receptor cell line (CHO, aequorin luminescence)
- Format: cell-based
- Test Context: selectivity ratio IC50 hV2 / IC50 hV1a
Assay Endpoint: ratio IC50 hV2/hV1a

Illustrative cases are given below, each with its answer.
CC(=O)Nc1ncccc1-n1cnc(Cn2nc(-c3ccc(Cl)cc3)n(C[C@H](O)C(F)(F)F)c2=O)n1	13.4
O=C(c1ccccc1-n1cnc(Cn2nc(-c3ccc(Cl)cc3)n(C[C@H](O)C(F)(F)F)c2=O)n1)N1CCCCCC1	147.2

P = COCC1CCCN1C(=O)c1cccnc1-n1nc(Cn2nc(-c3ccc(Cl)cc3)n(C[C@H](O)C(F)(F)F)c2=O)nc1C(=O)N1CCNC(=O)C1 (mixture of isomers)
Q = Cc1ccccc1NC(=O)c1ccccc1-n1cnc(Cn2nc(-c3ccc(Cl)cc3)n(C[C@H](O)C(F)(F)F)c2=O)n1
R = O=C(N[C@H]1C[C@@H]1F)c1cccc(C(F)(F)F)c1-n1cnc(Cn2nc(-c3ccc(Cl)cc3)n(C[C@H](O)C(F)(F)F)c2=O)n1 (racemic)
stdin: # sort list by recorded ratio IC50 hV2/hV1a, greatest to least Answer by listing the labels in the order asked for.
stdout: R, Q, P

---

- Target Or Test System: human V1a receptor (Homo sapiens)
- Measurement Protocol: Cellular in vitro assay for determining vasopressin receptor activity, V1a receptor cell line (CHO, aequorin luminescence)
- Test Context: CHO cell line transfected with human V1a receptor; [Arg]-vasopressin at EC50 concentration; read-out: IC50 hV1a
pIC50: −log10 of the molar value.
Assay Endpoint: pIC50

Illustrative cases are given below, each with its answer.
CC1(C)CN(C(=O)c2ccccc2-n2cnc(Cn3nc(-c4ccc(Cl)cc4)n(C[C@H](O)C(F)(F)F)c3=O)n2)CCN1	6.71
O=C(Nc1cccnc1-n1cnc(Cn2nc(-c3ccc(Cl)cc3)n(C[C@H](O)C(F)(F)F)c2=O)n1)C1CC1F (single isomer, unassigned) [Example 60]	8.37
O=c1n(Cc2ncn(-c3cccnc3NCCC(F)(F)F)n2)nc(-c2ccc(Cl)cc2)n1C[C@H](O)C(F)(F)F	6.63

P = CC1CN(C(=O)c2ccccc2-n2cnc(Cn3nc(-c4ccc(Cl)cc4)n(C[C@H](O)C(F)(F)F)c3=O)n2)CCN1C (stereo partly shown)
Q = O=C(c1ncccc1-n1cnc(Cn2nc(-c3ccc(Cl)cc3)n(C[C@@H](O)C(F)(F)F)c2=O)n1)N1CCC(F)(F)C1
R = O=C(Nc1ncccc1-n1cnc(Cn2nc(-c3ccc(Cl)cc3)n(C[C@H](O)C(F)(F)F)c2=O)n1)[C@@H]1C[C@@H]1C(F)(F)F (racemic)
S = Cc1ccc(F)cc1NC(=O)c1ccccc1-n1cnc(Cn2nc(-c3ccc(Cl)cc3)n(C[C@H](O)C(F)(F)F)c2=O)n1
stdin: Put the compounds in ascending order of pIC50. Answer by listing the labels in the order asked for.
stdout: Q, R, P, S

I = C=CCN(C)C(=O)c1ccccc1-n1cnc(Cn2nc(-c3ccc(Cl)cc3)n(C[C@H](O)C(F)(F)F)c2=O)n1
II = NC(=O)C1CCCN1C(=O)c1ncccc1-n1cnc(Cn2nc(-c3ccc(Cl)cc3)n(C[C@H](O)C(F)(F)F)c2=O)n1 (mixture of isomers)
stdin: Could you check which of I and II has a smaller value for pIC50? Answer format: the label of the selected item.
stdout: II

1 = CN(CC1CC1)C(=O)c1cccc(Cl)c1-n1cnc(Cn2nc(-c3ccc(Cl)cc3)n(C[C@H](O)C(F)(F)F)c2=O)n1
2 = O=C(c1cccc(Cl)c1-n1cnc(Cn2nc(-c3ccc(Cl)cc3)n(C[C@@H](O)C(F)(F)F)c2=O)n1)N1CCC(F)(F)C1
stdin: Select one: 1 or 2 . Criterion: greater recorded pIC50. Answer format: the label of the selected item.
stdout: 1
(1: 7.03, 2: 6.36)

a = O=C(Nc1ncccc1-n1cnc(Cn2nc(-c3ccc(Cl)cc3)n(C[C@H](O)C(F)(F)F)c2=O)n1)C1CC(F)(F)C1
b = O=C1CN(C(=O)c2nc(Cn3nc(-c4ccc(Cl)cc4)n(C[C@H](O)C(F)(F)F)c3=O)nn2-c2ncccc2C(=O)NCC(F)(F)F)CCN1
stdin: Select one: a or b . Criterion: greater recorded pIC50. Answer format: the label of the selected item.
stdout: a
